Each entry below carries its reported Kp,uu (unbound brain/plasma ratio).
assay: Brain penetration: free brain/plasma ratio in in vivo pharmacokinetic studies; conditions: brain and plasma (unbound); in vivo pharmacokinetic studies in rodents; read-out: free brain/plasma ratio (Bu/Pu)
measurement-name: Kp,uu (unbound brain/plasma ratio)

>>> value_measured("Cc1cccc(Cc2cnn(C(=O)N[C@H]3CCc4ccc(C#CC5(O)COC5)cc4N(C)C3=O)c2)n1")
11
>>> value_measured("Cc1cccc(Cc2cnn(C(=O)N[C@H]3COc4ccc(C#CC5CCOCC5)cc4N(C)C3=O)c2)n1")
1.7

====

Biological target: RIPK1 (Homo sapiens)
Sequence (Q13546 1-671): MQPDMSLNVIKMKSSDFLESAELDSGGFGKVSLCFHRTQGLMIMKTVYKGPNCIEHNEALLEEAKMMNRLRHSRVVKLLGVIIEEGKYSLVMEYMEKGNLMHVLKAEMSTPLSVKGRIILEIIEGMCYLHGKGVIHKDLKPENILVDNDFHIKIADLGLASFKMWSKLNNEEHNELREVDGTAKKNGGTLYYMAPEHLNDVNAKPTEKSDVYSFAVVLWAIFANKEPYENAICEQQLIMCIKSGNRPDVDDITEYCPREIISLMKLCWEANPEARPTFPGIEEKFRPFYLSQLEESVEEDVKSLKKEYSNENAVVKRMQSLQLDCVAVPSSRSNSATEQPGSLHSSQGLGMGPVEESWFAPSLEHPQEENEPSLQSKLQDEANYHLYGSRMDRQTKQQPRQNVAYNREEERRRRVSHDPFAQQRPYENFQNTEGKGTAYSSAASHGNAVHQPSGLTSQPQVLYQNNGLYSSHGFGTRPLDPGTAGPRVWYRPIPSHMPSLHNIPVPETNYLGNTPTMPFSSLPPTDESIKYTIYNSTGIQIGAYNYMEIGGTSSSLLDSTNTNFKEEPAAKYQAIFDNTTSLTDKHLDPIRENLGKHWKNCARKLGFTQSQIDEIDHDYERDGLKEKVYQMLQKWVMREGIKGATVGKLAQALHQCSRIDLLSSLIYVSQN
Experiment: RIPK1 ADP-Glo biochemical kinase assay
Conditions: read-out: RIPK1 ADP-Glo Kinase (IC50)
Each entry below carries its reported IC50.
measurement-name: IC50 (nM)

>>> value_measured("CN1C(=O)[C@@H](NC(=O)c2cc(Cc3cccc(O)n3)ccn2)COc2ccc(C#CC3(O)COC3)cc21")
304
>>> value_measured("Cc1nc(Cc2ccnc(C(=O)N[C@H]3COc4ccc(C#CC(C)(C)O)cc4N(C)C3=O)c2)cs1")
18.1
>>> value_measured("Cc1ncccc1Oc1ccnc(C(=O)N[C@H]2COc3ccc(C#CC4(O)CCC4)cc3N(C)C2=O)c1")
29.4
>>> value_measured("Cc1cccc(Oc2ccnc(C(=O)N[C@H]3COc4ccc(C#CC(C)(C)O)cc4N(C)C3=O)c2)n1")
33.4

====

Target: RIPK1 (Homo sapiens, UniProt Q13546)
Sequence (Q13546 1-671): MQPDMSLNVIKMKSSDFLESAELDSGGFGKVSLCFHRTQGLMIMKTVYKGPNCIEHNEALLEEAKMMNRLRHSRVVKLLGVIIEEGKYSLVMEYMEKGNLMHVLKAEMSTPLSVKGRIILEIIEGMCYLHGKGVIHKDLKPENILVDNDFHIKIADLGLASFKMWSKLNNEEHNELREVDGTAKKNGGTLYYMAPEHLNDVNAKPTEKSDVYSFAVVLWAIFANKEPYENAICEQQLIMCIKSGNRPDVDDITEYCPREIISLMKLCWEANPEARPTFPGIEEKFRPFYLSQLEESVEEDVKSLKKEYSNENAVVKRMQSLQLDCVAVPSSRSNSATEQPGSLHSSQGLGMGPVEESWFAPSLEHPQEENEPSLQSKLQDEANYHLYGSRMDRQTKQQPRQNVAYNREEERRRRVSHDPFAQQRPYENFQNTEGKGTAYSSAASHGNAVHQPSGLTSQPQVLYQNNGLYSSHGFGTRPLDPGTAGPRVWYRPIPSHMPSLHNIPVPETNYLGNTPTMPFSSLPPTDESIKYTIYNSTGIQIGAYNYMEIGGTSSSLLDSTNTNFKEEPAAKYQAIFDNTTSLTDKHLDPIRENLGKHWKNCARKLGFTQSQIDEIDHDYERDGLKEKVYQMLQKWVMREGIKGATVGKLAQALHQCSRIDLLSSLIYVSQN
Assay: RIPK1 ADP-Glo biochemical kinase assay
Conditions: read-out: RIPK1 ADP-Glo Kinase (IC50)
measurement-name: IC50 (nM)

>>> value_measured("CN1C(=O)[C@@H](NC(=O)c2cc(Oc3cccnc3F)ccn2)COc2ccc(C#CC(C)(C)C)cc21")
63.4
>>> value_measured("CN1C(=O)[C@@H](NC(=O)c2cc(Cc3cccnc3F)ccn2)COc2ccc(C#CC3CCOCC3)cc21")
18.3
>>> value_measured("CN1C(=O)[C@@H](NC(=O)n2cc(Cc3ccncc3)cn2)COc2ccc(C#CC(C)(C)O)cc21")
69.4
>>> value_measured("CN1C(=O)[C@@H](NC(=O)n2cc(Cc3cccc(F)n3)cn2)COc2ccc(C#CC3(O)COC3)cc21")
16.2

====

Target: RIPK1 (Homo sapiens)
Sequence (Q13546 1-671): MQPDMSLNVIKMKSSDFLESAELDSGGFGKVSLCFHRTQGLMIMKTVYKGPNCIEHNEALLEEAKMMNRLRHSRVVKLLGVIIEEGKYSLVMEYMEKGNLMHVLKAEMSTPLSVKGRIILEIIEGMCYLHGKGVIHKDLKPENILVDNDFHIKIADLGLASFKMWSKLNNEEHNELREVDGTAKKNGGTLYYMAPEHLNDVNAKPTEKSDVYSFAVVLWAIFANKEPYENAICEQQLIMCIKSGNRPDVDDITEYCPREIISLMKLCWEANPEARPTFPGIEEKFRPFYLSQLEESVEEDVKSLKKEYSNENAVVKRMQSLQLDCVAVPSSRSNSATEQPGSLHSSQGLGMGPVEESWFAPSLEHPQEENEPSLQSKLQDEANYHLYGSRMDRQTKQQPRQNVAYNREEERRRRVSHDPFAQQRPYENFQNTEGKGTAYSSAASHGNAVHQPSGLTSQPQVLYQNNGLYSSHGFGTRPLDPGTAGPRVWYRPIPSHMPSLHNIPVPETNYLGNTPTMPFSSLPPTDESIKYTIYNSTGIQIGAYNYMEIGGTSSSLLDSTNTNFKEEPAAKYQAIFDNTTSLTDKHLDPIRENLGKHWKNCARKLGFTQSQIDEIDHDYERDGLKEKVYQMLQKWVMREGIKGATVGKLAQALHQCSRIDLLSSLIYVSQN
Assay: RIPK1 ADP-Glo biochemical kinase assay
Details: read-out: RIPK1 ADP-Glo Kinase (IC50)
measurement-name: IC50 (nM)

>>> value_measured("Cc1cccc(Cc2cnn(C(=O)N[C@H]3COc4ccc(C#CC5CCOCC5)cc4N(C)C3=O)c2)n1")
16.4
>>> value_measured("CN1C(=O)[C@@H](NC(=O)c2cc(Cc3cscn3)ccn2)COc2ccc(C#CC(C)(C)O)cc21")
21.8
>>> value_measured("CN1C(=O)[C@@H](NC(=O)c2cc(Cc3cscn3)ccn2)COc2ccc(C#CC3(O)COC3)cc21")
12.8
>>> value_measured("Cc1cccc(Cc2ccnc(C(=O)N[C@H]3COc4ccc(C#CC(C)(C)O)cc4N(C)C3=O)c2)n1")
120
>>> value_measured("CN1C(=O)[C@@H](NC(=O)c2cc(Cc3cccnc3)ccn2)COc2ccc(C#CC(C)(C)O)cc21")
24.3
>>> value_measured("CN1C(=O)[C@@H](NC(=O)c2cc(Oc3cnn(C)c3)ccn2)COc2ccc(C#CC(C)(C)C)cc21")
24.2
>>> value_measured("CN1C(=O)[C@@H](NC(=O)n2cc(Cc3ccc(F)nc3F)cn2)COc2ccc(Br)cc21")
207
>>> value_measured("Cc1ncccc1Oc1ccnc(C(=O)N[C@H]2COc3ccc(C#CC(C)(C)O)cc3N(C)C2=O)c1")
35.9
>>> value_measured("CN1C(=O)[C@@H](NC(=O)n2cc(Cc3cccc(F)n3)cn2)COc2ccc(C#CC3COC3)cc21")
88
>>> value_measured("CN1C(=O)[C@@H](NC(=O)n2cc(Cc3cccc(F)n3)cn2)CCc2c(F)cc(C#CC(C)(C)CO)cc21")
32.5
>>> value_measured("CN1C(=O)[C@@H](NC(=O)c2cc(Cc3cccc(F)n3)ccn2)COc2ccc(C#CC(C)(C)C)cc21")
83.2
>>> value_measured("CN1C(=O)[C@@H](NC(=O)c2cc(Cc3cocn3)ccn2)COc2ccc(C#CC(C)(C)O)cc21")
11.9
>>> value_measured("CN1C(=O)[C@@H](NC(=O)c2cc(Cc3cccnc3F)ccn2)COc2ccc(C#CC(C)(C)O)cc21")
19.3
>>> value_measured("CN1C(=O)[C@@H](NC(=O)n2cc(Cc3ccccn3)cn2)COc2ccc(C#CC(C)(C)O)cc21")
26.4
>>> value_measured("CN1C(=O)[C@@H](NC(=O)c2cc(Oc3cncc(F)c3)ccn2)COc2ccc(C#CC3(O)CCC3)cc21")
28
>>> value_measured("CN1C(=O)[C@@H](NC(=O)n2cc(Cc3ccc(F)nc3)cn2)COc2ccc(C#CC(C)(C)O)cc21")
37.9
>>> value_measured("Cc1ccc(Oc2ccnc(C(=O)N[C@H]3COc4ccc(C#CC(C)(C)O)cc4N(C)C3=O)c2)cn1")
55.3
>>> value_measured("Cc1nc(Cc2ccnc(C(=O)N[C@H]3COc4ccc(C#CC(C)(C)C)cc4N(C)C3=O)c2)cs1")
396
>>> value_measured("CN1C(=O)[C@@H](NC(=O)n2cc(Cc3cccnc3F)cn2)COc2ccc(C#CC(C)(C)CO)cc21")
37.5
>>> value_measured("CN1C(=O)[C@@H](NC(=O)c2cc(Oc3ccc(F)nc3)ccn2)COc2ccc(C#CC3(O)COC3)cc21")
24.6
>>> value_measured("CN1C(=O)[C@@H](NC(=O)c2cc(Oc3cncc(F)c3)ccn2)COc2ccc(C#CC3COC3)cc21")
20.1
>>> value_measured("Cc1ccc(Cc2ccnc(C(=O)N[C@H]3COc4ccc(C#CC5(O)COC5)cc4N(C)C3=O)c2)cn1")
27.6
>>> value_measured("CN1C(=O)[C@@H](NC(=O)c2cc(Cc3cccc(F)n3)ccn2)COc2ccc(C#CC(C)(C)O)cc21")
21.2
>>> value_measured("CN1C(=O)[C@@H](NC(=O)c2cc(Oc3cccnc3)ccn2)COc2ccc(C#CC3(O)COC3)cc21")
18.1
>>> value_measured("CN1C(=O)[C@@H](NC(=O)c2cc(Oc3cccnc3C(F)(F)F)ccn2)COc2ccc(C#CC3(O)COC3)cc21")
56.3
>>> value_measured("CN1C(=O)[C@@H](NC(=O)c2cc(Oc3cccnc3)ccn2)COc2ccc(C#CC3CCOCC3)cc21")
19.5
>>> value_measured("Cc1cccc(Cc2cnn(C(=O)N[C@H]3CCc4ccc(C#CC5(O)COC5)cc4N(C)C3=O)c2)n1")
17.2
>>> value_measured("CN1C(=O)[C@@H](NC(=O)n2cc(Cc3ncccn3)cn2)COc2ccc(C#CC(C)(C)O)cc21")
106
>>> value_measured("CN1C(=O)[C@@H](NC(=O)c2cc(Oc3cccnc3)ccn2)COc2ccc(C#CC(C)(C)O)cc21")
20.2
>>> value_measured("CN1C(=O)[C@@H](NC(=O)c2cc(Oc3ccc(C(F)(F)F)nc3)ccn2)COc2ccc(C#CC(C)(C)O)cc21")
4530
>>> value_measured("CN1C(=O)[C@@H](NC(=O)n2cc(Cc3cccnc3)cn2)COc2ccc(C#CC(C)(C)O)cc21")
17.6
